- study_target: recombinant human B1 receptors (Homo sapiens, UniProt P46663)
- Construct: host or cells: CHO (CHO-B1)
- Sequence (P46663 whole entry): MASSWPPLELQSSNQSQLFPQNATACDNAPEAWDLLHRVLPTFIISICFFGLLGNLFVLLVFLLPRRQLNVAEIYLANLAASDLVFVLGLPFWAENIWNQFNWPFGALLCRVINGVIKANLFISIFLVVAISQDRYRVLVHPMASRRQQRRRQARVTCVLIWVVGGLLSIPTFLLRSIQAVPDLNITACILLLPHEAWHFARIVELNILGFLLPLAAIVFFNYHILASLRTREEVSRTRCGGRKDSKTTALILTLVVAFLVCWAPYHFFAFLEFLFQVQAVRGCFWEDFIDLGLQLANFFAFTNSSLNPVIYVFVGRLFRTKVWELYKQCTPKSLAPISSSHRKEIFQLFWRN
- test_description: Functional assay: antagonist potency by cytosolic calcium measurement (plate reader fluorimeter) in CHO-B1 cells, agonist LysDABK
- Assay type: cell-based
- assay_context: CHO-B1 cells, inhibition of LysDABK (EC80)-evoked [Ca2+]i elevation; read-out: B1 func.
pIC50: −log10 of the molar value.
Parameter: pIC50. Scope: all listed entries.

Examples with answers:
Cc1cnc(C(=O)NC2(C(=O)NCc3ccc(-n4c(-c5noc(C)n5)c(Cl)c5cc(F)ccc54)cc3)CC2)cn1 [Example 87]    > 7.70
Cc1nc(-c2c(Cl)c3ccccc3n2-c2ccc(CNC(=O)C3(NC(=O)c4ccco4)CC3)cc2)no1 [Example 145]    7.00 to 7.70

## Input Could you please provide reported pIC50 for Cc1nc(-c2c(Cl)c3cc(Cl)ccc3n2-c2ccc(CNC(=O)C3(NC(=O)c4cccnc4Cl)CC3)cc2)no1 [Example 70] ? Thanks!
## Output > 7.70

## Input Could you please provide reported pIC50 for Cc1nc(-c2c(Cl)c3ccccc3n2-c2ccc(CNC(=O)C3(NC(=O)C4CCCC4)CC3)cc2)no1 [Example 144] ? Thanks!
## Output 7.00 to 7.70

====

- study_target: human recombinant bradykinin B1 receptor (Homo sapiens, UniProt P46663)
- Construct: host or cells: CHO cells, clone hB1-A5
- Sequence (P46663 whole entry): as above
- test_description: Human recombinant bradykinin B1 receptor competitive radioligand binding
- assay_context: hB1 expressed in CHO cells, [3H]-[Des-Arg10] Kallidin radioligand; read-out: B1 binding
Parameter: Ki. Scope: all listed entries.

## Input Could you please provide reported Ki for Cc1nc(-c2c(Cl)c3cc(F)ccc3n2-c2ccc(CNC(=O)C3(NC(=O)C(F)(F)F)CC3)cc2)no1 [Example 189] ? Thanks!
## Output < 20 nM

## Input Could you please provide reported Ki for Cc1cnc(C(=O)NC2(C(=O)NCc3ccc(-n4c(-c5noc(C)n5)c(Cl)c5cc(Cl)ccc54)cc3)CC2)cn1 [Example 72] ? Thanks!
## Output < 20 nM

## Input Could you please provide reported Ki for Cc1nc(-c2c(Cl)c3ccccc3n2-c2ccc(CNC(=O)C3(NC(=O)c4conc4C)CC3)cc2)no1 [Example 181] ? Thanks!
## Output < 20 nM

====

Parameter: IC50. Scope: all listed entries.
- study_target: recombinant human B1 receptors (Homo sapiens)
- Construct: host or cells: CHO (CHO-B1)
- test_description: Functional assay: antagonist potency by cytosolic calcium measurement (plate reader fluorimeter) in CHO-B1 cells, agonist LysDABK
- Format: cell-based
- assay_context: CHO-B1 cells, inhibition of LysDABK (EC80)-evoked [Ca2+]i elevation; read-out: B1 func.
- Experimental: Assessment of Antagonist Potency at B1 Receptors In Vitro by Measurement of Cytosolic Calcium Ion Concentration with a Plate Reader Fluorimeter in Cells Expressing Recombinant Human B1 Receptors […] Measurements of [Ca^2+]i were carried out on CHO-B1 cells stably expressing human B1 receptors, respectively. […] After incubation at 37° C. for 20-25 min. baseline and agonist-evoked changes of [Ca^2+]; were measured column by column with a plate reader fluorimeter (Fluoroskan Ascent, Labsystems). […]

Cc1nc(-c2c(Cl)c3ccccc3n2-c2ccc(CNC(=O)C3(NC(=O)c4cc(F)cc(C(F)(F)F)c4)CC3)cc2)no1    < 20 nM
Cc1ccc(C(=O)NC2(C(=O)NCc3ccc(-n4c(-c5noc(C)n5)c(Cl)c5ccccc54)cc3)CC2)c(Cl)n1    < 20 nM
Cc1nc(-c2c(Cl)c3ccccc3n2-c2ccc(CNC(=O)C3(NC(=O)Cc4ccsc4)CC3)cc2)no1    20 to 100 nM
COc1ccc2c(c1)c(Cl)c(C#N)n2-c1ccc(CNC(=O)C2(NC(=O)c3cc(OC)no3)CC2)cc1    < 20 nM
COc1ccc2c(c1)c(Cl)c(-c1noc(C)n1)n2-c1ccc(CNC(=O)C2(NC(=O)c3cc(OC)no3)CC2)cc1    < 20 nM

## Input Look up recombinant human B1 receptors (Homo sapiens) data: IC50 of Cn1nnc(-c2c(Cl)c3ccccc3n2-c2ccc(CNC(=O)C3(NC(=O)c4ccnc(F)c4)CC3)cc2)n1 , then report it.
## Output < 20 nM

## Input Look up recombinant human B1 receptors (Homo sapiens) data: IC50 of Cc1nc(-c2c(Cl)c3ccccc3n2-c2ccc(CNC(=O)C3(NC(=O)c4ccc(F)c(C(F)(F)F)c4)CC3)cc2)no1 , then report it.
## Output 20 to 100 nM

====

Parameter: IC50. Scope: all listed entries.
- study_target: recombinant human B1 receptors (Homo sapiens, UniProt P46663)
- Construct: host or cells: CHO (CHO-B1)
- test_description: Functional assay: antagonist potency by cytosolic calcium measurement (plate reader fluorimeter) in CHO-B1 cells, agonist LysDABK
- Format: cell-based
- assay_context: CHO-B1 cells, inhibition of LysDABK (EC80)-evoked [Ca2+]i elevation; read-out: B1 func.

Examples with answers:
Cc1nc(-c2c(Cl)c3ccccc3n2-c2ccc(CNC(=O)C3(NC(=O)c4ccnc(F)c4)CC3)c(F)c2)no1    < 20 nM
Cc1nc(-c2c(Cl)c3ccccc3n2-c2ccc(CNC(=O)C3(NC(=O)c4ccoc4)CC3)cc2)no1    < 20 nM
COc1cc(C(=O)NC2(C(=O)NCc3ccc(-n4c(-c5nnc(C)o5)c(Cl)c5cc(F)ccc54)cc3)CC2)on1    < 20 nM
COc1ccc2c(c1)cc(-c1nnc(C)o1)n2-c1ccc(CNC(=O)C2(NC(=O)c3cc(OC)no3)CC2)cc1    20 to 100 nM
NC(=O)c1c(Cl)c2ccccc2n1-c1ccc(CNC(=O)C2(NC(=O)C(F)(F)F)CC2)cc1    20 to 100 nM
Cc1nc(-c2c(Cl)c3ccccc3n2-c2ccc(CNC(=O)C3(NC(=O)c4ccc(C(F)(F)F)c(F)c4)CC3)cc2)no1    20 to 100 nM
Cc1nc(-c2c(Cl)c3ccccc3n2-c2ccc(CNC(=O)C3(NC(=O)c4cccc(C(F)(F)F)c4)CC3)cc2)no1    < 20 nM
Cc1nc(-c2c(Cl)c3ccccc3n2-c2ccc(CNC(=O)C3(NC(=O)c4cccnc4Cl)CC3)cc2)no1    < 20 nM
COc1cc(C(=O)NC2(C(=O)NCc3ccc(-n4c(C#N)c(Cl)c5ccccc54)cc3)CC2)on1    < 20 nM
COc1cc(C(=O)NC2(C(=O)NCc3ccc(-n4c(-c5noc(C)n5)c(C#N)c5ccccc54)cc3)CC2)on1    < 20 nM

## Input Could you please provide reported IC50 for COc1cc(C(=O)NC2(C(=O)NCc3ccc(-n4c(-c5noc(C)n5)cc5ccccc54)cn3)CC2)on1 ? Thanks!
## Output 20 to 100 nM

## Input Could you please provide reported IC50 for COc1ccc2c(c1)c(Cl)c(-c1noc(C)n1)n2-c1ccc(CNC(=O)C2(NC(=O)C(F)(F)F)CC2)cc1 ? Thanks!
## Output < 20 nM

## Input Could you please provide reported IC50 for Cc1nc(-c2c(Cl)c3ccccc3n2-c2ccc(CNC(=O)C3(NC(=O)c4ccc(F)nc4)CC3)cc2)no1 ? Thanks!
## Output < 20 nM

## Input Could you please provide reported IC50 for N#Cc1cc2ccccc2n1-c1ccc(CNC(=O)C2(NC(=O)c3cncc(C(F)(F)F)c3)CC2)cc1 ? Thanks!
## Output < 20 nM

## Input Could you please provide reported IC50 for COc1cc(C(=O)NC2(C(=O)NCc3ccc(-n4c(-c5noc(C)n5)c(Cl)c5cc(Cl)ccc54)cc3)CC2)on1 ? Thanks!
## Output < 20 nM

## Input Could you please provide reported IC50 for COc1ccc2c(c1)c(Cl)c(-c1nc(C)no1)n2-c1ccc(CNC(=O)C2(NC(=O)c3cccnc3F)CC2)cc1 ? Thanks!
## Output < 20 nM

## Input Could you please provide reported IC50 for Cc1nc(-c2c(Cl)c3ccccc3n2-c2ccc(CNC(=O)C3(NC(=O)c4cnc5ccccc5c4)CC3)cc2)no1 ? Thanks!
## Output < 20 nM

## Input Could you please provide reported IC50 for Cc1nc(-c2cc3ccccc3n2-c2ccc(CNC(=O)C3(NC(=O)CC(F)(F)F)CC3)cc2)no1 ? Thanks!
## Output < 20 nM

## Input Could you please provide reported IC50 for COC(=O)c1c(Cl)c2c(F)cccc2n1-c1ccc(CNC(=O)C2(NC(=O)C(F)(F)F)CC2)cc1 ? Thanks!
## Output 20 to 100 nM

## Input Could you please provide reported IC50 for Cc1cc(C(=O)NC2(C(=O)NCc3ccc(-n4c(-c5nnn(C)n5)c(Cl)c5ccccc54)cc3)CC2)no1 ? Thanks!
## Output < 20 nM

## Input Could you please provide reported IC50 for Cc1nc(-c2c(Cl)c3ccccc3n2-c2ccc(CNC(=O)C3(NC(=O)c4cccc(F)c4)CC3)cc2)no1 ? Thanks!
## Output < 20 nM

Origin of the recorded values: patent US20130217702A1
